EC50 overview
tested on: HCV genotype 1b (Con1) replicon in HUH-7 cells; experiment: HCV replicon luciferase reporter assay, genotype 1b; assay type: cell-based; conditions: Hepatitis C virus, Huh-7, 72 h, HCV genotype 1b replicon luciferase, 3 days incubation, read-out: LE_1b (EC50, range)

Guide cases for EC50, answers given:
{"columns": ["Mol", "EC50"],
 "data": [
  ["COc1cc2ccccc2c(O[C@@H]2C[C@H]3C(=O)N[C@]4(C(=O)NS(=O)(=O)C5(C)CC5)C[C@H]4/C=C\\CC[C@@H](C)C[C@@H](C)[C@H](NC(=O)OC(C)(C)C(F)(F)F)C(=O)N3C2)n1", "< 5.46 nM"],
  ["COc1ccc2c(O[C@@H]3C[C@H]4C(=O)N[C@]5(C(=O)NS(=O)(=O)C6(CF)CC6)C[C@H]5/C=C\\CC[C@@H](C)C[C@@H](C)[C@H](NC(=O)OC(C)(C)C(F)(F)F)C(=O)N4C3)ncc(N3CCOCC3)c2c1", "< 5.46 nM"],
  ["COc1cc2ccccc2c(O[C@@H]2C[C@H]3C(=O)N[C@]4(C(=O)NS(=O)(=O)C5(CF)CC5)C[C@H]4/C=C\\CC[C@@H](C)C[C@@H](C)[C@H](NC(=O)OC(C)(C)C(C)(F)F)C(=O)N3C2)n1", "< 5.46 nM"],
  ["CC[C@@H]1C[C@H](C)CC/C=C\\[C@@H]2C[C@@]2(C(=O)NS(=O)(=O)C2CC2)NC(=O)[C@@H]2C[C@@H](Oc3nc(-c4ccc(OC(C)C)cn4)cc4cc(OC)ccc34)CN2C(=O)[C@H]1NC(=O)OC(C)(C)C", "0.51 to 1 nM"],
  ["COc1cc2c(OC)cnc(O[C@@H]3C[C@H]4C(=O)N[C@]5(C(=O)NS(=O)(=O)C6(C)CC6)C[C@H]5/C=C\\CC[C@@H](C)C[C@@H](C)[C@H](NC(=O)OC(C)(C)C)C(=O)N4C3)c2cc1F", "< 5.46 nM"],
  ["COc1ccc2ncc(O[C@@H]3C[C@H]4C(=O)N[C@]5(C(=O)NS(=O)(=O)C6(CF)CC6)C[C@H]5/C=C\\CC[C@@H](C)C[C@@H](C)[C@H](NC(=O)OC(C)(C)C)C(=O)N4C3)nc2c1", "< 5.46 nM"],
  ["CCn1nc(O[C@@H]2C[C@H]3C(=O)N[C@]4(C(=O)NS(=O)(=O)C5CC5)C[C@H]4/C=C\\CC[C@H](C)C[C@@H](C)[C@H](NC(=O)C(=O)N(C)C)C(=O)N3C2)c2ccccc2c1=O", "> 87.4 nM"],
  ["COc1ccc2c(O[C@@H]3C[C@H]4C(=O)N[C@]5(C(=O)NS(=O)(=O)C6CC6)C[C@H]5/C=C\\CC[C@@H](C)C[C@@H](C)[C@H](NC(=O)OC(C)(C)C)C(=O)N4C3)nc(-c3ccc(OC(C)C)nc3)cc2c1", "< 5.46 nM"]
]}

Exercise: Using the record for [2H]C([2H])([2H])Oc1cnc(O[C@@H]2C[C@H]3C(=O)N[C@]4(C(=O)NS(=O)(=O)C5(C)CC5)C[C@H]4/C=C\CC[C@H](C)C[C@@H](C)[C@H](NC(=O)OC(C)(C)C(C)(F)F)C(=O)N3C2)c2ccccc12 , report its EC50.
Key: < 5.46 nM

Sourced from patent US9499550B2
